Tested on: cocklebur (Xanthium pensylvanicum)
Assay: Preemergence herbicidal activity, cocklebur
Assay type: in vivo
Settings: Xanthium strumarium, pre-emergence, 336 h, 2 lb/A
Listing of entries alongside the reported pest or weed control at 2241.7 g/ha.
Report the value in % with no unit label.

Examples from the recorded data:
| compound | result.units | pest or weed control at 2241.7 g/ha |
| --- | --- | --- |
| CCOC(=O)C(C)Oc1ccc(Sc2ccc(C(F)(F)F)cc2Cl)cc1 (stereo not shown) | % | 0 |
| CCNC(=O)C(C)Oc1ccc(Oc2ccc(C(F)(F)F)cc2Cl)cc1 (stereo not shown) | % | 0 |
| CCOC(=O)CCC(C)Oc1ccc(Oc2ccc(C(F)(F)F)cc2Cl)cc1 (stereo not shown) | % | 0 |

Which pest or weed control at 2241.7 g/ha value belongs to CCOC(=O)C(C)Oc1ccc(Oc2ccc(C(F)(F)F)cc2Cl)cc1C (stereo not shown) ?
0

Form field: reported pest or weed control at 2241.7 g/ha of CCCCCCCCOC(=O)C(C)Oc1ccc(Oc2ccc(C(F)(F)F)cc2Cl)cc1 (stereo not shown)
0

Using the record for CC(C)OC(=O)C(C)Oc1ccc(Oc2ccc(C(F)(F)F)cc2Cl)cc1 (stereo not shown) , report its pest or weed control at 2241.7 g/ha.
0

====

This listing pairs molecules with measured % control, Marigold.
System: marigold (Tagetes spp.)
Experiment: Preemergence herbicidal activity, marigold
Assay type: in vivo
Conditions: Pre, 2 lb/A
Write the answer as a number in %, unit excluded.

| molecule | system.tested | result.units | % control, Marigold |
| --- | --- | --- | --- |
| CC(Oc1ccc(Oc2ccc(C(F)(F)F)cc2Cl)cc1)C(=O)O (stereo not drawn) [Example 12] | marigold (Tagetes spp.) | % | 0 |

% control, Marigold for CC(Oc1ccc(Oc2ccc(C(F)(F)F)cc2Cl)cc1)C(=O)O (stereo not drawn) [Example 13] ?
0

// % control, Marigold lookup, key: CC(Oc1ccc(Oc2ccc(C(F)(F)F)cc2Cl)cc1)C(=O)O (stereo not drawn) [Example 17]
0

====

Tested on: yellow nutsedge (Cyperus esculentus)
Experiment: Postemergence herbicidal activity, yellow nutsedge
Format: in vivo
Settings: Cyperus, post-emergence, 336 h, 4 lb/A
observable: pest or weed control at 4483.4 g/ha
Please state the number and follow it with the unit.

Answered examples (6):
| compound | observable | observed.measurement |
| --- | --- | --- |
| CCOC(=O)C(C)Oc1ccc([S+]([O-])c2ccccc2C(F)(F)F)cc1 (stereo not shown) [Example 49] | pest or weed control at 4483.4 g/ha | 0% |
| CCOC(=O)C(C)Oc1ccc([S+]([O-])c2cccc(C(F)(F)F)c2)cc1 (stereo not shown) [Example 50] | pest or weed control at 4483.4 g/ha | 0% |
| CCOC(=O)C(C)Oc1ccc([S+]([O-])c2ccc(C(F)(F)F)cc2Cl)cc1 (stereo not shown) [Example 42] | pest or weed control at 4483.4 g/ha | 0% |
| CCOC(=O)C(C)Oc1ccc(Sc2cccc(C(F)(F)F)c2)cc1 (stereo not shown) [Example 45] | pest or weed control at 4483.4 g/ha | 0% |
| CCOC(=O)C(C)Oc1ccc(Sc2ccc(C(F)(F)F)cc2)cc1 (stereo not shown) [Example 46] | pest or weed control at 4483.4 g/ha | 0% |
| CCOC(=O)C(C)Oc1ccc(Sc2ccccc2C(F)(F)F)cc1 (stereo not shown) [Example 44] | pest or weed control at 4483.4 g/ha | 0% |

In the following, a different compound is considered.
Given the entry CCOC(=O)C(C)Oc1ccc([S+]([O-])c2ccc(C(F)(F)F)cc2)cc1 (stereo not shown) [Example 51] , report its measured pest or weed control at 4483.4 g/ha.
0%

====

Test system: morningglory (Ipomoca spp.)
Assay: Preemergence herbicidal activity, morningglory
Format: in vivo
Settings: Ipomoea, pre-emergence, 336 h, 2 lb/A
The following compounds are shown together with reported pest or weed control at 2241.7 g/ha values.
Just the number please, in %, no unit attached.

Solved entries (count: 3):
| compound | pest or weed control at 2241.7 g/ha, % |
| --- | --- |
| CCOC(=O)C(C)Oc1ccc(Sc2ccc(C(F)(F)F)cc2[N+](=O)[O-])cc1 (stereo not drawn) [Example 48] | 0 |
| CCCOC(=O)C(C)Oc1ccc(Oc2ccc(C(F)(F)F)cc2Cl)cc1 (stereo not drawn) [Example 32] | 0 |
| CCOC(=O)CCC(C)Oc1ccc(Oc2ccc(C(F)(F)F)cc2)cc1 (stereo not drawn) [Example 39] | 0 |

Given CCC(C)OC(=O)C(C)Oc1ccc(Oc2ccc(C(F)(F)F)cc2Cl)cc1 (stereo not drawn) [Example 34] , state its recorded pest or weed control at 2241.7 g/ha.
0

# query: pest or weed control at 2241.7 g/ha of entry CCOC(=O)COc1ccc(Oc2ccc(C(F)(F)F)cc2Cl)cc1 [Example 11]
0

// lookup pest or weed control at 2241.7 g/ha for CCOC(=O)C(C)Oc1ccc(Oc2ccc(C(F)(F)F)cc2Cl)cc1[N+](=O)[O-] (stereo not drawn) [Example 9]
0

Find the recorded pest or weed control at 2241.7 g/ha belonging to CC(Oc1ccc(Oc2ccc(C(F)(F)F)cc2Cl)cc1)C(=O)OCCN(C)C (stereo not drawn) [Example 31] and report it.
70

# input compound: CCOC(=O)C(C)Oc1ccc(Sc2ccc(C(F)(F)F)cc2Cl)cc1 (stereo not drawn) [Example 3] ; wanted: its pest or weed control at 2241.7 g/ha
0

Endpoint output: pest or weed control at 2241.7 g/ha of CCOC(=O)C(Oc1ccc(Oc2ccc(C(F)(F)F)cc2Cl)cc1)C(C)C (stereo not drawn) [Example 28] . Value?
70

====

System: downybrome (Bromus tectorum)
Assay: Postemergence herbicidal activity, downybrome
Assay type: in vivo
Settings: Bromus tectorum, post-emergence, 336 h, Post, 2 lb/A
// rule not met strictly below 40% in pest or weed control at 2241.7 g/ha; rule met otherwise

| compound | label.value |
| --- | --- |
| CCN(CC)C(=O)C(C)Oc1ccc(Oc2ccc(C(F)(F)F)cc2Cl)cc1 (stereo not shown) | rule not met |
| CCCCOC(=O)C(C)Oc1ccc(Oc2ccc(C(F)(F)F)cc2Cl)cc1 (stereo not shown) | rule met |
| CCOC(=O)C(C)Oc1ccc(Sc2ccc(C(F)(F)F)cc2C#N)cc1 (stereo not shown) | rule met |
| CCCOC(=O)C(C)Oc1ccc(Oc2ccc(C(F)(F)F)cc2Cl)cc1 (stereo not shown) | rule met |
| CCOC(=O)CCC(C)Oc1ccc(Oc2ccc(C(F)(F)F)cc2Cl)cc1 (stereo not shown) | rule met |
| CC(Oc1ccc(Oc2ccc(C(F)(F)F)cc2)cc1)C(=O)O (stereo not shown) | rule met |
| CC(Oc1ccc(Oc2ccc(C(F)(F)F)cc2Cl)cc1)C(=O)OCCN(C)C (stereo not shown) | rule met |
| CCOC(=O)C(C)Oc1ccc(Oc2ccc(C(F)(F)F)cc2Cl)cc1OC (stereo not shown) | rule not met |
| CC(C#N)Oc1ccc(Oc2ccc(C(F)(F)F)cc2Cl)cc1 (stereo not shown) | rule not met |
| COCCOC(=O)C(C)Oc1ccc(Oc2ccc(C(F)(F)F)cc2Cl)cc1 (stereo not shown) | rule met |

For this compound, is measured pest or weed control at 2241.7 g/ha 40% or higher? CCOC(=O)C(Oc1ccc(Oc2ccc(C(F)(F)F)cc2Cl)cc1)C(C)C (stereo not shown)
rule not met

Hi team, for CCOC(=O)CCC(C)Oc1ccc(Oc2ccc(C(F)(F)F)cc2)cc1 (stereo not shown) , is the recorded pest or weed control at 2241.7 g/ha at or above 40%?
rule met

====

Entries and their pest or weed control at 4483.4 g/ha
Test system: wild oats (Avena fatua)
Test: Postemergence herbicidal activity, wild oats
Assay type: in vivo
Settings: Avena fatua, post-emergence, 336 h, Post, 4 lb/A; read-out: % control, Wild oat
Express the result in % but write the number alone.

Completed entries (count: 4):
| compound | pest or weed control at 4483.4 g/ha, % |
| --- | --- |
| CCOC(=O)C(C)Oc1ccc([S+]([O-])c2ccccc2C(F)(F)F)cc1 (stereo not shown) | 30 |
| CCOC(=O)C(C)Oc1ccc(Sc2ccccc2C(F)(F)F)cc1 (stereo not shown) | 0 |
| CCOC(=O)C(C)Oc1ccc([S+]([O-])c2cccc(C(F)(F)F)c2)cc1 (stereo not shown) | 20 |
| CCOC(=O)C(C)Oc1ccc([S+]([O-])c2ccc(C(F)(F)F)cc2Cl)cc1 (stereo not shown) | 0 |

Identify the measured pest or weed control at 4483.4 g/ha of CCOC(=O)C(C)Oc1ccc(Sc2ccc(C(F)(F)F)cc2)cc1 (stereo not shown) for wild oats (Avena fatua).
20

GET /values?readout=pest or weed control at 4483.4 g/ha&system=wild oats (Avena fatua)&item= CCOC(=O)C(C)Oc1ccc(Sc2cccc(C(F)(F)F)c2)cc1 (stereo not shown)
20

Lab request: please report pest or weed control at 4483.4 g/ha under test system wild oats (Avena fatua) for CCOC(=O)C(C)Oc1ccc([S+]([O-])c2ccc(C(F)(F)F)cc2)cc1 (stereo not shown)
20
